Values compiled from patent US6593335B1.

Measured Landrace Pig Bladder Index accompanies every entry in the list below.
- Target or test system: potassium channels (Sus scrofa, UniProt F1SR11)
- Protocol summary: Functional potassium channel opening activity in isolated Landrace pig bladder strips (field-stimulated twitch)
- Reported conditions: ED50 for P1075 divided by ED50 for the test agonist, averaged over tissues
Give the value as a plain number.

# Compound, Landrace Pig Bladder Index
data = [
    ("O=C1CCCC2=C1C(c1ccc(Cl)c([N+](=O)[O-])c1)C1=C(CCS1(=O)=O)N2 (single isomer, unassigned; (-)) [Example 100]", 0.17),
    ("O=C1CCCC2=C1C(c1cccc([N+](=O)[O-])c1)C1=C(CCCS1(=O)=O)N2 (stereo not shown)", 0.022),
    ("O=C1CCCC2=C1C(c1ccc(F)c(Cl)c1)C1=C(CCS1(=O)=O)N2 (single isomer, unassigned; (+)) [Example 109]", 0.36),
]

Which Landrace Pig Bladder Index is listed for O=C1CCCC2=C1C(c1ccc(Br)c(Br)c1)C1=C(CCS1(=O)=O)N2 (single isomer, unassigned) ?
0.24

Also check O=C1CCCC2=C1C(c1ccc(Cl)c(Cl)c1)C1=C(CCCS1(=O)=O)N2 (stereo not shown)
0.15

Okay, and O=C1CCCC2=C1C(c1cc(Br)c(F)cc1O)C1=C(CCS1(=O)=O)N2 (stereo not shown) ?
0.078

Consider next the compound O=C1CCCC2=C1C(c1cc(Br)cs1)C1=C(CCS1(=O)=O)N2 (single isomer, unassigned) in the same way.
0.036

###

- Target or test system: potassium channels (Sus scrofa)
- Protocol summary: Functional potassium channel opening activity in isolated Landrace pig bladder strips (field-stimulated twitch)
- Reported conditions: negative logarithm of ED50
- Excerpt: […]
Entries annotated with measured Landrace Pig Bladder pD2

# Molecule, Landrace Pig Bladder pD2
measured = [
    ("O=C1CCCC2=C1C(c1ccc(F)c(Cl)c1)C1=C(CCS1(=O)=O)N2 (single isomer, unassigned; (-)) [Example 110]", 6.7),
    ("O=C1CCCC2=C1C(c1ccc(Cl)c(C(F)(F)F)c1)C1=C(CCS1(=O)=O)N2 (single isomer, unassigned; (-))", 6.2),
    ("O=C1CCCC2=C1[C@@H](c1ccc(F)c(Br)c1)C1=C(CCS1(=O)=O)N2", 7.0),
    ("O=C1CCCC2=C1C(c1ccc(F)c(Br)c1)C1=C(CCCS1(=O)=O)N2 (single isomer, unassigned; (-)) [Example 94]", 6.4),
    ("O=C1CCCC2=C1C(c1ccc(Cl)c(Cl)c1)C1=C(CCS1(=O)=O)N2 (single isomer, unassigned; (-)) [Example 96]", 6.5),
    ("O=C1CCCC2=C1C(c1ccc(Cl)c(Cl)c1)C1=C(CCCS1(=O)=O)N2 (stereo not shown)", 6.2),
]

Now for a further molecule.
// query Landrace Pig Bladder pD2 value for entry O=S1(=O)CCC2=C1C(c1ccc(F)c(C(F)(F)F)c1)C1=C(CCS1(=O)=O)N2
6.0

###

Listing of recorded melting point by entry.

Recorded melting point, per entry:
# Molecule, Measure name, Data value
records = [
    ("O=C1CCC2=C1C(c1ccc(Cl)c(F)c1)C1=C(CCS1(=O)=O)N2 (stereo not shown) [Example 80]", "melting point", "> 260 °C"),
    ("O=C1CCC2=C1C(c1ccc(Cl)c(Cl)c1)C1=C(CCS1(=O)=O)N2 (single isomer, unassigned) [Example 145]", "melting point", "> 250 °C"),
    ("O=C1CCCC2=C1C(c1ccc(Br)s1)C1=C(CCS1(=O)=O)N2 (stereo not shown) [Example 128]", "melting point", "> 250 °C"),
    ("O=C1CCCC2=C1C(c1ccc(Br)c(Br)c1)C1=C(CCS1(=O)=O)N2 (stereo not shown) [Example 137]", "melting point", "> 250 °C"),
    ("CC1(C)CCC2=C(C1=O)C(c1ccc(F)c(Br)c1)C1=C(CCS1(=O)=O)N2 (stereo not shown) [Example 116]", "melting point", "> 270 °C"),
]

// query melting point value for entry N#Cc1cc(C2C3=C(CCS3(=O)=O)NC3=C2S(=O)(=O)CC3)ccc1F [Example 82]
275 to 280 °C (dec.)

Proceed to O=S1(=O)CCC2=C1C(c1ccc(Cl)c(Cl)c1)C1=C(CCS1(=O)=O)N2 [Example 77]
> 260 °C

###

- Target or test system: potassium channels (Sus scrofa)
- Protocol summary: Functional potassium channel opening activity in isolated Landrace pig bladder strips (field-stimulated twitch)
- Reported conditions: ED50 for P1075 divided by ED50 for the test agonist, averaged over tissues
Note to self: Landrace Pig Bladder Index under 0.03 means Yes, ties and anything higher get No.

Observe how each entry below is paired with its result.
# Compound, Discrete label
data = [
    ("O=C1CCCC2=C1C(c1ccc(F)c(Br)c1)C1=C(CCCS1(=O)=O)N2 (single isomer, unassigned; (+)) [Example 93]", "Yes"),
    ("N#Cc1cccc(C2C3=C(CCCC3=O)NC3=C2S(=O)(=O)CC3)c1 (single isomer, unassigned; (-)) [Example 114]", "Yes"),
    ("O=C1CCC2=C1C(c1ccc(F)c(Br)c1)C1=C(CCCS1(=O)=O)N2 (stereo not shown) [Example 40]", "No"),
    ("O=C1CCC2=C1C(c1ccc(F)c(Br)c1)C1=C(CCCS1(=O)=O)N2 (single isomer, unassigned; (-)) [Example 92]", "No"),
    ("CC1(C)CCC2=C(C1=O)C(c1ccc(F)c(Br)c1)C1=C(CCS1(=O)=O)N2 (stereo not shown)", "No"),
]

Consider the compound O=C1CCCC2=C1C(c1cccc(Br)c1)C1=C(CCCS1(=O)=O)N2 (stereo not shown) . Is its Landrace Pig Bladder Index strictly less than 0.03?
Yes

Now the same for O=C1CCCC2=C1[C@H](c1ccc(F)c(Br)c1)C1=C(CCS1(=O)=O)N2
No

###

- Target or test system: potassium channels (Rattus norvegicus, UniProt Q63563)
- Sequence (Q63563 whole entry): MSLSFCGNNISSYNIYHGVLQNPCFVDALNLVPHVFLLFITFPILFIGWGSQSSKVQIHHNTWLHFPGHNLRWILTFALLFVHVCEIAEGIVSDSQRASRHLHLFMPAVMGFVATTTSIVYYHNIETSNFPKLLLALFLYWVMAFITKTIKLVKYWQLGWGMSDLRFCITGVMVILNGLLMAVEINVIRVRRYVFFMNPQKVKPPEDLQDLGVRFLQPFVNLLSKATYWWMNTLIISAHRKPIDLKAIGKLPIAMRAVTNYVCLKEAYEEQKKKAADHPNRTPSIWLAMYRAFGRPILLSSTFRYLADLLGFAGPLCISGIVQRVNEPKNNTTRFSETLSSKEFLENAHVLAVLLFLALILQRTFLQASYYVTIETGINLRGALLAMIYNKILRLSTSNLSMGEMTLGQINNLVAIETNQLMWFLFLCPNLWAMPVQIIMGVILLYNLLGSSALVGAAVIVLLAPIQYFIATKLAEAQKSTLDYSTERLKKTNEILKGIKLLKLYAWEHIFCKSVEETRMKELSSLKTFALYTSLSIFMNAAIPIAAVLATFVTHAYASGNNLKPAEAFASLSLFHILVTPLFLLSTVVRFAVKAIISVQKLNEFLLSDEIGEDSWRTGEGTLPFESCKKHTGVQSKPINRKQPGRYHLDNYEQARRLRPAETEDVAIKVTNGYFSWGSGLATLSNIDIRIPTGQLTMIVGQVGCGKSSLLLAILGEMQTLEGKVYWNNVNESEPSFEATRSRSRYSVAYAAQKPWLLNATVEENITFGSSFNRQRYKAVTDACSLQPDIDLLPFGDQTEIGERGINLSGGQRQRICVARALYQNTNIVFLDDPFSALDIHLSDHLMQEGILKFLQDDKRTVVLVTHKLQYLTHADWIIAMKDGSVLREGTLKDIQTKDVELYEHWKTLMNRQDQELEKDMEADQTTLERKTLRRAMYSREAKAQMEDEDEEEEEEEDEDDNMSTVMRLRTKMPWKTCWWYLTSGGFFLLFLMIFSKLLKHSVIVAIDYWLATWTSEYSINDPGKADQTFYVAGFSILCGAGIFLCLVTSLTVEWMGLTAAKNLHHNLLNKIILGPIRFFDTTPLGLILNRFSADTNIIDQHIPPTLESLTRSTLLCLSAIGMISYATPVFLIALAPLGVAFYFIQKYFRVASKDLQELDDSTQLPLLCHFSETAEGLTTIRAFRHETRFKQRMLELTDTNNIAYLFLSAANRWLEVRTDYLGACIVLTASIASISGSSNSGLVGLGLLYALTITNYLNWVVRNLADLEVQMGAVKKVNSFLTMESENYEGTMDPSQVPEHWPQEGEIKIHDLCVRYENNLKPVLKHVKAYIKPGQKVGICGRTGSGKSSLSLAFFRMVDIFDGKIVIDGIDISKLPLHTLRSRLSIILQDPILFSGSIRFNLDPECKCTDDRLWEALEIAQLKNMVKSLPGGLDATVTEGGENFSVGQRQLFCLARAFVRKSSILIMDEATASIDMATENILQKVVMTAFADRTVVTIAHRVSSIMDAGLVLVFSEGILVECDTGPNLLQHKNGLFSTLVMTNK
- Sequence (Q63664 whole entry partner): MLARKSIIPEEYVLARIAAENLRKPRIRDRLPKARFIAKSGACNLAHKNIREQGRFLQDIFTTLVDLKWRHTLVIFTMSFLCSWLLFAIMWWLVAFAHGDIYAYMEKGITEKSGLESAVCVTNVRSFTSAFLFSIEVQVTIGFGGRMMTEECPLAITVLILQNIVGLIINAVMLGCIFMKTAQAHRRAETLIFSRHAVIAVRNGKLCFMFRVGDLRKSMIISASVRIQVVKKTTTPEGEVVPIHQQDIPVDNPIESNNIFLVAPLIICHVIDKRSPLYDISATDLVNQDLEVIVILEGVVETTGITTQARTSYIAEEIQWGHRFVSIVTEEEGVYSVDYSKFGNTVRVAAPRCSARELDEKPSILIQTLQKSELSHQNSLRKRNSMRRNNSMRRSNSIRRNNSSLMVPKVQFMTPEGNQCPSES
- Protocol summary: Membrane hyperpolarization (MHP) assay in A10 cells, DiBAC(4)3 FLIPR
- Reported conditions: concentration that elicits 50% of the maximal response for the test sample
Quick reference: pEC50 of the listed items.
By convention, pEC50 is the negative base-10 log of a molar concentration.

# Compound, Target or test system, pEC50
rows = [
    ("O=C1CCCC2=C1C(c1cccc(Br)c1)C1=C(CCCS1(=O)=O)N2 (centres unmarked)", "potassium channels (Rattus norvegicus, UniProt Q63563)", 5.12),
]

Next compound, pEC50 to be filled in.
Which measured pEC50 value corresponds to O=C1CCCC2=C1C(c1cccc(F)c1)C1=C(CCCS1(=O)=O)N2 (centres unmarked) ?
4.96

###

- Target or test system: potassium channels (Cavia porcellus)
- Sequence (A0A286XYR9 1-1546): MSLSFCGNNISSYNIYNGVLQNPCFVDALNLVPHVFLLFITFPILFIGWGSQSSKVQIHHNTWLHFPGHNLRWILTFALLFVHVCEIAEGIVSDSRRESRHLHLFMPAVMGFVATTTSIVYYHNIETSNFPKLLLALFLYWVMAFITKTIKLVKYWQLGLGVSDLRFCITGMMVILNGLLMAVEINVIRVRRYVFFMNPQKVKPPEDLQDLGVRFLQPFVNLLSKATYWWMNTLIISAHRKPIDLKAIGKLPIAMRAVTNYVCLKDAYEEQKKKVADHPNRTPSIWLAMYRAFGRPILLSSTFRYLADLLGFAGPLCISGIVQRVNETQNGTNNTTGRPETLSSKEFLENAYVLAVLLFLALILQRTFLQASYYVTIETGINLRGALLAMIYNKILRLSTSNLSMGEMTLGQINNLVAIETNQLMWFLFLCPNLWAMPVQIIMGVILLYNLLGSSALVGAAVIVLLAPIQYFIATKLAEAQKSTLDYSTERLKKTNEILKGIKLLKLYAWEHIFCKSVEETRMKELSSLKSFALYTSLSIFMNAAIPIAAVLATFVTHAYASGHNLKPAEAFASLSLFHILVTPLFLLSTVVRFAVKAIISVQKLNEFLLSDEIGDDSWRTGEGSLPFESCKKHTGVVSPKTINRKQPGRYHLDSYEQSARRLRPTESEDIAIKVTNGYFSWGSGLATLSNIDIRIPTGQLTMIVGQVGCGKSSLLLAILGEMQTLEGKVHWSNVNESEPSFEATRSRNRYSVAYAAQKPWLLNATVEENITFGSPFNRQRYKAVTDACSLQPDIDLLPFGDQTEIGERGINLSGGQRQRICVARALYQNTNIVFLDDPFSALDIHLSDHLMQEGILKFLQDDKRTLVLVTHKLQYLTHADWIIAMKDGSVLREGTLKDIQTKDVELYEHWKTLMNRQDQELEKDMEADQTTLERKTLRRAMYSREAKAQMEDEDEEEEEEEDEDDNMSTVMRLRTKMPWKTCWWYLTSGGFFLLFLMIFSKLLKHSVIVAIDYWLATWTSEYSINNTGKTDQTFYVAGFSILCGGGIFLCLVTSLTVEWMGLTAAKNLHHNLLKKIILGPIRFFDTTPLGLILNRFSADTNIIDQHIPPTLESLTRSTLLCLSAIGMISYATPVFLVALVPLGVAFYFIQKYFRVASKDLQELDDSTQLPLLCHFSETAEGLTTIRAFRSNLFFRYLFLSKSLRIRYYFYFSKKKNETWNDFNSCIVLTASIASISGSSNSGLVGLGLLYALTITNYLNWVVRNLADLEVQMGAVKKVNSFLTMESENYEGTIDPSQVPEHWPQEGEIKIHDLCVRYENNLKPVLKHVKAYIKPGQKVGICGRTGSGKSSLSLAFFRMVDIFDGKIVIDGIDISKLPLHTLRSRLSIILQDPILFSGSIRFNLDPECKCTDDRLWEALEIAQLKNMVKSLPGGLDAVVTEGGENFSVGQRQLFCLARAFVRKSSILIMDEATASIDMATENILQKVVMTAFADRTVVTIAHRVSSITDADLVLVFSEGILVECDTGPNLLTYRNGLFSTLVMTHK
- Sequence (Q9JHJ9 whole entry partner): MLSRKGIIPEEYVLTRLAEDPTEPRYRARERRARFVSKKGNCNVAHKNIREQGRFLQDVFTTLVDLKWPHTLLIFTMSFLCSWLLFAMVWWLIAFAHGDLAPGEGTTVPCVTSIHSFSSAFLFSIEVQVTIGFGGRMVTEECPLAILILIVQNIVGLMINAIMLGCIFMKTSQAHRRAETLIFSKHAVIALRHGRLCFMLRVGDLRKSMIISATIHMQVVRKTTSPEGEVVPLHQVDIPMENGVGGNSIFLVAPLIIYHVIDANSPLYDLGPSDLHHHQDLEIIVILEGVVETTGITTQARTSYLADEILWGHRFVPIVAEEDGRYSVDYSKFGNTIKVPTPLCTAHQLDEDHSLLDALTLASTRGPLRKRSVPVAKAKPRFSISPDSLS
- Protocol summary: Membrane hyperpolarization (MHP) assay in primary cultured guinea-pig urinary bladder (GPB) cells, DiBAC(4)3 FLIPR
- Reported conditions: concentration that elicits 50% of the maximal response for the test sample
A collection of molecules and their measured EC50
The reply should contain only the number, in µM.

I'd like to know its EC50. The molecule in question is CC1(C)CCC2=C(C1=O)C(c1cccc([N+](=O)[O-])c1)C1=C(CCS1(=O)=O)N2 (centres unmarked)
10

Please give the result for O=C1CCCC2=C1C(c1cccc(Br)c1)C1=C(CCCS1(=O)=O)N2 (centres unmarked) too.
2.5

Another molecule to check: O=C1CCCC2=C1C(c1cccc(F)c1)C1=C(CCCS1(=O)=O)N2 (centres unmarked)
20

Entry to check: CC1(C)CCC2=C(C1=O)C(c1cc(Br)c(O)c(Br)c1)C1=C(CCS1(=O)=O)N2 (centres unmarked)
1.2

###

Landrace Pig Bladder Efficacy (% P1075) values for the compounds below.
- Target or test system: potassium channels (Sus scrofa)
- Protocol summary: Functional potassium channel opening activity in isolated Landrace pig bladder strips (field-stimulated twitch)
- Reported conditions: maximal efficacy relative to P1075; field stimulation 0.05Hz, 0.5 milli-seconds at 20 volts
Give a bare numeral; the unit % P1075 is implied.

Known Landrace Pig Bladder Efficacy (% P1075) results, listed for orientation:
# Compound, Target or test system, Units label, Landrace Pig Bladder Efficacy (% P1075)
rows = [
    ("O=C1CCCC2=C1C(c1cccc(F)c1)C1=C(CCCS1(=O)=O)N2 (stereo not drawn) [Example 11]", "potassium channels (Sus scrofa)", "% P1075", 100),
    ("O=C1CCCC2=C1C(c1ccc(F)c(Br)c1)C1=C(CCCS1(=O)=O)N2 (single isomer, unassigned; (-)) [Example 94]", "potassium channels (Sus scrofa)", "% P1075", 94),
]

Which measured Landrace Pig Bladder Efficacy (% P1075) value corresponds to O=C1CCCC2=C1C(c1ccc(F)c(Cl)c1)C1=C(CCS1(=O)=O)N2 (single isomer, unassigned; (-)) [Example 110] ?
100
